B1: TRIM15 (parent)
chain: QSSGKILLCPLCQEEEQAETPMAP

variants of: B1; experiment: protein stability index of a GFP-peptide fusion (GPS, HEK-293T) (PSI 1-6); higher = more stable; details: c terminus: a fixed tail appended;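 further: lentivirally expressed fusions sorted by FACS into six bins by GFP to DsRed ratio, PSI derived from sequencing read proportions per bin multiplied by bin number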
Reported Metric: protein stability index
Just the number, please, no unit attached.

>>> result("QSSGKILLCPLCQEEYQAETPMAP [E16Y]")
3.08

What measured protein stability index goes with QSSGKILLCPLCQEDEQAETPMAP [E15D] ?
2.97

Further, for GSSGKILLCPLCQEEEQAETPMAP [Q1G] ?
3.8

Further, for QSSGKILLCPLCQEEEQLETPMAP [A18L] ?
3.25

Further, for QSSGKILLCPLCQEENQAETPMAP [E16N] ?
3.1

Further, for QSSGKILLQPLCQEEEQAETPMAP [C9Q] ?
3.61

Further, for QSWGKILLCPLCQEEEQAETPMAP [S3W] ?
2.16

Further, for QSSGKIKLCPLCQEEEQAETPMAP [L7K] ?
4.51

Further, for QSSGKHLLCPLCQEEEQAETPMAP [I6H] ?
3.15

Further, for QSSGKILLCCLCQEEEQAETPMAP [P10C] ?
3.77

Further, for QSSGKSLLCPLCQEEEQAETPMAP [I6S] ?
3.39

Further, for QISGKILLCPLCQEEEQAETPMAP [S2I] ?
2.62

Further, for QSSGKILLYPLCQEEEQAETPMAP [C9Y] ?
4.36

Further, for QSSGKILLCPLCQEEEQAETPMAR [P24R] ?
1.71

Further, for QSSGMILLCPLCQEEEQAETPMAP [K5M] ?
2.41

Further, for QSSGKILLCPLCQREEQAETPMAP [E14R] ?
3.3

Further, for QSPGKILLCPLCQEEEQAETPMAP [S3P] ?
3.23

Further, for QSSGKILWCPLCQEEEQAETPMAP [L8W] ?
2.93

Further, for QSSGKILLCELCQEEEQAETPMAP [P10E] ?
4.06

Further, for QSSGKILLCPLCQEEFQAETPMAP [E16F] ?
2.23

Further, for QTSGKILLCPLCQEEEQAETPMAP [S2T] ?
3.34
